read-out: matrix metalloproteinase-3 (MMP3), MMP3 (gene 4314); test: LTEA_HepaRG_MMP3: Life Technologies and Expression Analysis (LTEA) Assay for matrix metalloproteinase-3 (MMP3) using HepaRG (AID 2283519); details: mRNA level, 48 h; actives raise or lower the signal
The source made the active and inactive calls. The calls were made as follows: active = hit-call score of the fitted dose curve at least 0.9, where 1 is the maximum; inactive = score below 0.9.
Labels: 1 for active, -1 for inactive

{"Record Smiles": "C=CCOC(=O)c1ccccc1C(=O)OCC=C", "Group": -1}
{"Record Smiles": "Cc1c(C(=O)O)c(O)cc2c1C(=O)c1c(O)c([C@@H]3O[C@H](CO)[C@@H](O)[C@H](O)[C@H]3O)c(O)c(O)c1C2=O", "Group": -1}
{"Record Smiles": "C=CCc1ccc(O)c(OC)c1", "Group": -1}
{"Record Smiles": "CCCCCC(=O)O", "Group": -1}
{"Record Smiles": "O=C(OCCCCCOC(=O)c1ccccc1)c1ccccc1", "Group": 1}
{"Record Smiles": "CCCCCCCCCCO", "Group": -1}

----------
assay: BSK_LPS_SRB: Viability Assessment in the BioMAP Diversity Plus: LPS Assay (AID 2283079); conditions: primary human HUVEC with PBMC;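 also: total protein by sulforhodamine B absorbance as a cytotoxicity measure; measured one day after compound addition; fitted in both directions against DMSO so loss or gain of signal counts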
Activity calls are given as the source filed them. The calls were made as follows: active = hit-call score of the fitted dose curve at least 0.9, where 1 is the maximum; inactive = score below 0.9.
Outcomes: active, inactive

{"Compound": "CC(C)(C)c1cc(O)c(C(C)(C)C)cc1O", "Group": "inactive"}
{"Compound": "CCCCCCCC=O", "Group": "inactive"}
{"Compound": "CCCCN(CCCC)CCCC", "Group": "inactive"}
{"Compound": "CN[C@H]1CC[C@@H](c2ccc(Cl)c(Cl)c2)c2ccc(S(N)(=O)=O)cc21", "Group": "active"}
{"Compound": "CCCCC(CC)COC(=O)CC(C(=O)OCC(CC)CCCC)S(=O)(=O)O (centres undefined)", "Group": "active"}
{"Compound": "COc1ccc(C)cc1N", "Group": "inactive"}
{"Compound": "Cc1cc(=O)[nH]c(=S)[nH]1", "Group": "inactive"}
{"Compound": "C=CCc1ccc(O)c(OC)c1", "Group": "inactive"}
{"Compound": "CN1CCCC1=O", "Group": "inactive"}
{"Compound": "Cc1ccc(C)c(O)c1C", "Group": "inactive"}
{"Compound": "CC1(C)CC(N=C=O)CC(C)(CN=C=O)C1 (centres undefined)", "Group": "inactive"}
{"Compound": "NC(=O)Cn1c(=O)cc(CCN2CCN(c3nccc4sccc34)CC2)c2ccc(F)cc21", "Group": "inactive"}
{"Compound": "CC1(C)NC(=O)NC1=O", "Group": "inactive"}
{"Compound": "CC(=O)OCCOCCOCCOC(C)=O", "Group": "inactive"}
{"Compound": "Cc1ccc2ncccc2c1", "Group": "inactive"}
{"Compound": "COc1cc(C=O)ccc1O", "Group": "inactive"}
{"Compound": "FC(F)(F)C(F)(F)C(F)(F)C(F)(F)C(F)(F)C(F)(F)CCI", "Group": "inactive"}
{"Compound": "Cc1cccc([N+](=O)[O-])c1C", "Group": "inactive"}
{"Compound": "Cc1cccc(C)c1O", "Group": "inactive"}
{"Compound": "CC(=O)C(C)=CC1C(C)=CCCC1(C)C (centres undefined)", "Group": "inactive"}
{"Compound": "Cc1ccc(C(C)C)c(O)c1", "Group": "inactive"}
{"Compound": "Clc1cc(Cl)c(Cl)cc1Cl", "Group": "inactive"}
{"Compound": "COC(=O)c1ccc(O)cc1", "Group": "inactive"}
{"Compound": "Cc1ccc(Cl)cc1", "Group": "inactive"}
{"Compound": "CCCCCCCCCCCC(=O)OC", "Group": "inactive"}
{"Compound": "NCC1(Cc2noc(=O)[nH]2)CCCCC1", "Group": "inactive"}
{"Compound": "CCc1c(C(=O)NN2CCCCC2)nn(-c2ccc(Cl)cc2Cl)c1-c1ccc(Br)cc1", "Group": "active"}
{"Compound": "C=CCOC(=O)c1ccccc1C(=O)OCC=C", "Group": "inactive"}
{"Compound": "CNC(=O)[C@H]1O[C@@H](n2cnc3c(NCc4cc(Cl)ccc4OCc4cc(C)no4)ncnc32)[C@H](O)[C@@H]1N", "Group": "inactive"}
{"Compound": "CCCCCCOCCO", "Group": "inactive"}
{"Compound": "CCCCCC(=O)O", "Group": "inactive"}
{"Compound": "Cc1nc(-c2ccc3c(c2)CCN(CCC2CCC(NC(=O)/C=C/c4ccc(F)cc4)CC2)CC3)no1 (centres undefined)", "Group": "inactive"}
{"Compound": "C1CCC(SSC2CCCCC2)CC1", "Group": "inactive"}
{"Compound": "Cc1cccc(Nc2cc(Cl)nc(SCC(=O)O)n2)c1C", "Group": "inactive"}
{"Compound": "Oc1ccc2c(c1)OC[C@@H](N1CCC(O)(c3ccc(F)cc3)CC1)[C@H]2O", "Group": "inactive"}
{"Compound": "CCCCCCC(=O)OCC", "Group": "inactive"}
{"Compound": "Cc1ccc(C)c(C)c1", "Group": "inactive"}
{"Compound": "CCCCCCCCCCC", "Group": "inactive"}
{"Compound": "C[Si]1(C)O[Si](C)(C)O[Si](C)(C)O[Si](C)(C)O1", "Group": "inactive"}
{"Compound": "Cc1oc(-c2ccccc2)nc1CCOc1cccc2c1ccn2CCC(=O)O", "Group": "inactive"}
{"Compound": "NS(=O)(=O)c1cc2c(cc1Cl)NCNS2(=O)=O", "Group": "inactive"}
{"Compound": "CCCc1cc(=O)[nH]c(=S)[nH]1", "Group": "inactive"}
{"Compound": "Nc1ccc2c(c1)C(=O)c1ccccc1C2=O", "Group": "inactive"}
{"Compound": "Nc1nc(N)c2nc(CNc3ccc(C(=O)N[C@@H](CCC(=O)O)C(=O)O)cc3)cnc2n1", "Group": "inactive"}

----------
read-out: Tumor necrosis factor receptor 1 (TNFRSF1A), TNFRSF1A (gene 7132); assay: LTEA_HepaRG_TNFRSF1A: Life Technologies and Expression Analysis (LTEA) Assay for Tumor necrosis factor receptor 1 (TNFRSF1A) using HepaRG (AID 2283535); conditions: mRNA level, 48 h; actives raise or lower the signal
Active and inactive are the calls of the source. How the source made its calls: active means hit-call score of the fitted dose curve at least 0.9, where 1 is the maximum; inactive means score below 0.9.
Labels: 1 (yes) (active), 0 (no) (inactive)

{"Record Smiles": "CNC(=O)[C@H]1O[C@@H](n2cnc3c(NCc4cc(Cl)ccc4OCc4cc(C)no4)ncnc32)[C@H](O)[C@@H]1N", "Group": "0 (no)"}
{"Record Smiles": "CCCCCCCCCCCCCO", "Group": "0 (no)"}
{"Record Smiles": "Oc1ccc2c(c1)OC[C@@H](N1CCC(O)(c3ccc(F)cc3)CC1)[C@H]2O", "Group": "0 (no)"}
{"Record Smiles": "COc1cc(-c2nc(NC(=O)c3cc4cc(C)cc(C)c4n3CC(=O)O)sc2CCC2CCCCC2)c(OC)cc1Cl", "Group": "1 (yes)"}

----------
read-out: CYP3A5 (gene 1577); test: LTEA_HepaRG_CYP3A5: Life Technologies and Expression Analysis (LTEA) Assay for CYP3A5 using HepaRG (AID 2283493); settings: mRNA level, 48 h; actives raise or lower the signal
Activity calls are given as the source filed them. The calls were made as follows: active = hit-call score of the fitted dose curve at least 0.9, where 1 is the maximum; inactive = score below 0.9.
Outcomes: active, inactive

{"Molecule": "CCNc1cccc(C)c1", "Group": "inactive"}
{"Molecule": "Cc1ccc(C)c(O)c1C", "Group": "inactive"}
{"Molecule": "CN[C@H]1CC[C@@H](c2ccc(Cl)c(Cl)c2)c2ccc(S(N)(=O)=O)cc21", "Group": "inactive"}
{"Molecule": "Cc1cc(NC(=O)C(=O)O)cc(C)c1Oc1ccc(O)c2c1CCC2", "Group": "active"}
{"Molecule": "O=C(O)Cc1ccccc1Nc1c(Cl)cccc1Cl", "Group": "inactive"}
{"Molecule": "CCCCc1ccc2c(n1)[C@@H](c1ccc(OC)cc1C[C@H](C)C(=O)O)[C@H](C(=O)O)[C@H]2c1ccc2c(c1)OCO2", "Group": "inactive"}
{"Molecule": "Nc1nc(N)c2nc(CNc3ccc(C(=O)N[C@@H](CCC(=O)O)C(=O)O)cc3)cnc2n1", "Group": "active"}
{"Molecule": "CCOC(=O)C(C)(C)Oc1ccc(Cl)cc1", "Group": "inactive"}
{"Molecule": "O=C(N[C@@H](Cc1ccccc1)[C@@H](O)C(=O)N1C[C@@H](O)[C@@H](O)C1)c1cc2cc(Cl)ccc2[nH]1", "Group": "inactive"}
{"Molecule": "Clc1cc(Cl)c(Cl)cc1Cl", "Group": "inactive"}
{"Molecule": "COc1ccc(C)cc1N", "Group": "inactive"}
{"Molecule": "C[Si]1(C)O[Si](C)(C)O[Si](C)(C)O[Si](C)(C)O1", "Group": "inactive"}
{"Molecule": "Oc1ccc2c(c1)OC[C@@H](N1CCC(O)(c3ccc(F)cc3)CC1)[C@H]2O", "Group": "inactive"}
{"Molecule": "CC(=O)C(C)=CC1C(C)=CCCC1(C)C (centres undefined)", "Group": "inactive"}
{"Molecule": "CCCCN(CCCC)CCCC", "Group": "inactive"}
{"Molecule": "Cc1cc(=O)[nH]c(=S)[nH]1", "Group": "inactive"}
{"Molecule": "Nc1ccccc1N", "Group": "active"}
{"Molecule": "CCCCCCOCCO", "Group": "inactive"}
{"Molecule": "CCOC(=O)CCC(=O)OCC", "Group": "inactive"}
